What remaining at 24 h, 0.2 μg/μl was measured for each of the following?
- protocolText: In vitro peptide stability in rat brain homogenate
- Type: in vitro ADME
- measurementParameters: after 24 h incubation at 37° C. in 10% rat brain homogenate; HPLC peak area vs sample incubated in PBS; read-out: % of intact peptide in rat brain homogenate
*1 amine or outer side, *2 acyl side, *3 side chain or, on linkers, in order; H or OH if unused. Where a SMILES comes first, the peptide text is derived from it. [ ]: non-standard residue; d: D form. azaPhe = O=C(N(Cc1ccccc1)N[*:1])[*:2]; azaPro = O=C(N1CCCN1[*:1])[*:2]
# unit: % | format: bare number

(Q) Item CC(=O)N[C@@H](CC(C)C)C(=O)N1CCC[C@H]1C(=O)NN(Cc1ccccc1)C(=O)N[C@@H](Cc1ccccc1)C(=O)N[C@@H](CC(=O)O)C(N)=O [Example 5, Ac-L-P-F^a-F-D-NH2] (Ac-LP[azaPhe]FD-NH2) has what recorded remaining at 24 h, 0.2 μg/μl?
(A) 71

(Q) Item CC(=O)N[C@@H](CC(C)C)C(=O)N1CCCN1C(=O)N[C@@H](Cc1ccccc1)C(=O)N[C@@H](Cc1ccccc1)C(=O)N[C@@H](CC(=O)O)C(N)=O [Example 6, Ac-L-P^a-F-F-D-NH2] (Ac-L[azaPro]FFD-NH2) has what recorded remaining at 24 h, 0.2 μg/μl?
(A) 80

* * *

- protocolText: In vitro peptide stability in human plasma
- Assay type: in vitro ADME
- measurementParameters: after 24 h incubation at 37° C. in fresh human plasma; HPLC peak area vs sample incubated in PBS; read-out: % of intact peptide in human plasma
*1 amine or outer side, *2 acyl side, *3 side chain or, on linkers, in order; H or OH if unused. Where a SMILES comes first, the peptide text is derived from it. [ ]: non-standard residue; d: D form. azaPhe = O=C(N(Cc1ccccc1)N[*:1])[*:2]; azaPro = O=C(N1CCCN1[*:1])[*:2]
What remaining at 24 h, 0.2 μg/μl was measured for each of the following?

(Q) Item CC(=O)N[C@@H](CC(C)C)C(=O)N1CCC[C@H]1C(=O)NN(Cc1ccccc1)C(=O)N[C@@H](Cc1ccccc1)C(=O)N[C@@H](CC(=O)O)C(N)=O [Example 5, Ac-L-P-F^a-F-D-NH2] (Ac-LP[azaPhe]FD-NH2) has what recorded remaining at 24 h, 0.2 μg/μl?
(A) 93%

(Q) Item CC(=O)N[C@@H](CC(C)C)C(=O)N1CCCN1C(=O)N[C@@H](Cc1ccccc1)C(=O)N[C@@H](Cc1ccccc1)C(=O)N[C@@H](CC(=O)O)C(N)=O [Example 6, Ac-L-P^a-F-F-D-NH2] (Ac-L[azaPro]FFD-NH2) has what recorded remaining at 24 h, 0.2 μg/μl?
(A) 93%
